These data points were gathered from patent US8507502B2.

# assayed-system: GST-EGFR-KD^L858R/T790M (Homo sapiens, UniProt P00533, L858R/T790M)
# Construct: residues from 696 to 1022 and with L858R/T790M
# Sequence (P00533 696-1022 T790M/L858R): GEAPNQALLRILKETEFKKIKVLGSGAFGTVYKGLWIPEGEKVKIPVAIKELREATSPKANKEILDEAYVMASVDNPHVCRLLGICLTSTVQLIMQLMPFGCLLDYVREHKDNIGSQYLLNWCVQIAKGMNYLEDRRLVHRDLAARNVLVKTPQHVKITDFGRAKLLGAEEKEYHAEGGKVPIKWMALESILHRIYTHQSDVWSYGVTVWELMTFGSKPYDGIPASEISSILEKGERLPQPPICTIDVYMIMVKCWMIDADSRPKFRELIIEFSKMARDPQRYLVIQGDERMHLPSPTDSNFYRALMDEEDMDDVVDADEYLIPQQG
# method-description: Double mutant EGFR kinase assay (Kinase-Glo)
# particulars: 1 μM ATP, read-out: IC50 (concentration at which activity of 50% of mutant EGFR is inhibited)
pIC50: −log10 of the molar value.
experimental-endpoint: pIC50

Consider CN(C)C/C=C/C(=O)N1CCc2c(sc3ncnc(N[C@H](COCc4ccccc4)c4ccccc4)c23)C1 [Compound 198] . Its measured pIC50 is 5.60 to 6.30

Consider CCN(CC)C/C=C/C(=O)N1CCc2c(sc3ncnc(N[C@H](CO)c4ccccc4)c23)C1 [Compound 75] . Its measured pIC50 is 5.60 to 6.30

Consider C=CC(=O)N1CCc2c(sc3ncnc(N[C@H](CO)Cc4ccccc4)c23)C1 [Compound 193] . Its measured pIC50 is 5.60 to 6.30

Consider C=CC(=O)N1CCc2c(sc3ncnc(N[C@H](COCc4cccc([N+](=O)[O-])c4)c4ccccc4)c23)C1 [Compound 226] . Its measured pIC50 is 6.30 to 8.00

Consider C=CC(=O)N1CCc2c(sc3ncnc(N[C@H](COCc4cccc(F)c4)c4ccccc4)c23)C1 [Compound 200] . Its measured pIC50 is 6.30 to 8.00

Consider C=CC(=O)N1CCc2c(sc3ncnc(N[C@H](COCc4ccc(C(F)(F)F)cc4)c4ccccc4)c23)C1 [Compound 202] . Its measured pIC50 is 6.30 to 8.00

Consider C=CC(=O)N1CCc2c(sc3ncnc(N[C@H](CC)c4ccccc4)c23)C1 [Compound 106] . Its measured pIC50 is 5.60 to 6.30

Consider CN(C)C/C=C/C(=O)N1CCc2c(sc3ncnc(N[C@H](COCc4ccccn4)c4ccccc4)c23)C1 [Compound 203] . Its measured pIC50 is 5.60 to 6.30

Consider CN(C)C/C=C/C(=O)N1CCc2c(sc3ncnc(Nc4ccc(F)c(Cl)c4)c23)C1 [Compound 187] . Its measured pIC50 is 6.30 to 8.00

Consider C=CC(=O)N1CCc2c(sc3ncnc(N[C@H](COCc4cccc(OC)c4)c4ccccc4)c23)C1 [Compound 223] . Its measured pIC50 is 6.30 to 8.00

* * *

# assayed-system: GST-EGFR-KD^L858R/T790M (Homo sapiens, UniProt P00533, L858R/T790M)
# Construct: residues from 696 to 1022 and with L858R/T790M
# method-description: Double mutant EGFR kinase assay (Kinase-Glo)
# particulars: 1 μM ATP, read-out: IC50 (concentration at which activity of 50% of mutant EGFR is inhibited)
experimental-endpoint: IC50

# mol, assayed-system, IC50
records = [
    ("CC[C@@H](Nc1ncnc2sc3c(c12)CCN(C(=O)/C=C/CN(CC)CC)C3)c1ccccc1", "GST-EGFR-KD^L858R/T790M (Homo sapiens, UniProt P00533, L858R/T790M)", "500 to 2500 nM"),
    ("C=CC(=O)N1CCc2c(sc3ncnc(N[C@H](COCc4ccccc4)c4ccccc4)c23)C1", "GST-EGFR-KD^L858R/T790M (Homo sapiens, UniProt P00533, L858R/T790M)", "10 to 499 nM"),
    ("C=CC(=O)N1CCc2c(sc3ncnc(N[C@H](COCc4cccc(C)c4)c4ccccc4)c23)C1", "GST-EGFR-KD^L858R/T790M (Homo sapiens, UniProt P00533, L858R/T790M)", "10 to 499 nM"),
]

Consider C[C@@H](Nc1ncnc2sc3c(c12)CCN(C(=O)/C=C/CN(C)C)C3)c1ccccc1 . Its measured IC50 is 500 to 2500 nM

Consider C[C@@H](Nc1ncnc2sc3c(c12)CCN(C(=O)/C=C/CN(CCO)CCO)C3)c1ccccc1 . Its measured IC50 is 500 to 2500 nM

Consider C=CC(=O)N1CCc2c(sc3ncnc(N[C@H](CO)c4ccccc4)c23)C1 . Its measured IC50 is 10 to 499 nM

Consider CNC/C=C/C(=O)N1CCc2c(sc3ncnc(N[C@H](C)c4ccccc4)c23)C1 . Its measured IC50 is 500 to 2500 nM

Consider C=CC(=O)N1CCc2c(sc3ncnc(N[C@H](CCO)c4ccccc4)c23)C1 . Its measured IC50 is 10 to 499 nM

* * *

# assayed-system: GST-EGFR-KD^L858R/T790M (Homo sapiens, UniProt P00533, L858R/T790M)
# Construct: residues from 696 to 1022 and with L858R/T790M
# method-description: Double mutant EGFR kinase assay (Kinase-Glo)
# particulars: 1 μM ATP, read-out: IC50 (concentration at which activity of 50% of mutant EGFR is inhibited)
pIC50: −log10 of the molar value.
experimental-endpoint: pIC50

# count of solved cases: 8
# molecule, assayed-system, experimental-endpoint, recorded-measurement
records = [
    ("CN(C)C/C=C/C(=O)N1CCc2c(sc3ncnc(N[C@H](CO)c4ccccc4)c23)C1", "GST-EGFR-KD^L858R/T790M (Homo sapiens, UniProt P00533, L858R/T790M)", "pIC50", "6.30 to 8.00"),
    ("CN1CCN(C/C=C/C(=O)N2CCc3c(sc4ncnc(N[C@H](CO)c5ccccc5)c34)C2)CC1", "GST-EGFR-KD^L858R/T790M (Homo sapiens, UniProt P00533, L858R/T790M)", "pIC50", "5.60 to 6.30"),
    ("C=CC(=O)Nc1cccc(-c2c(-c3ccccc3)oc3ncnc(N[C@H](COC(=O)C=C)c4ccccc4)c23)c1", "GST-EGFR-KD^L858R/T790M (Homo sapiens, UniProt P00533, L858R/T790M)", "pIC50", "6.30 to 8.00"),
    ("C=CS(=O)(=O)N1CCc2c(sc3ncnc(N[C@H](CO)c4ccccc4)c23)C1", "GST-EGFR-KD^L858R/T790M (Homo sapiens, UniProt P00533, L858R/T790M)", "pIC50", "5.60 to 6.30"),
    ("C=CC(=O)Nc1cccc(-c2c(-c3ccccc3)oc3ncnc(N[C@H](C)c4ccccc4)c23)c1", "GST-EGFR-KD^L858R/T790M (Homo sapiens, UniProt P00533, L858R/T790M)", "pIC50", "5.60 to 6.30"),
    ("O=C(/C=C/CN1CCOCC1)N1CCc2c(sc3ncnc(N[C@H](CO)c4ccccc4)c23)C1", "GST-EGFR-KD^L858R/T790M (Homo sapiens, UniProt P00533, L858R/T790M)", "pIC50", "5.60 to 6.30"),
    ("O=C(/C=C/CN1CCCCC1)N1CCc2c(sc3ncnc(N[C@H](CO)c4ccccc4)c23)C1", "GST-EGFR-KD^L858R/T790M (Homo sapiens, UniProt P00533, L858R/T790M)", "pIC50", "5.60 to 6.30"),
    ("CCN(CC)C/C=C/C(=O)N1CCc2c(sc3ncnc(N[C@H](C)c4ccccc4)c23)C1", "GST-EGFR-KD^L858R/T790M (Homo sapiens, UniProt P00533, L858R/T790M)", "pIC50", "5.60 to 6.30"),
]

Consider CN(C)C/C=C/C(=O)N1CCc2c(sc3ncnc(N[C@H](COCc4ccccc4F)c4ccccc4)c23)C1 . Its measured pIC50 is 5.60 to 6.30

Consider C=CC(=O)N1CCc2c(sc3ncnc(NC(CCO)c4ccccc4)c23)C1 (stereo not shown) . Its measured pIC50 is 5.60 to 6.30

* * *

# assayed-system: GST-EGFR-KD^WT (Homo sapiens, UniProt P00533)
# Construct: 50 ng GST-EGFR-KD^WT proteins; made in house
# Sequence (P00533 712-979 limits assumed): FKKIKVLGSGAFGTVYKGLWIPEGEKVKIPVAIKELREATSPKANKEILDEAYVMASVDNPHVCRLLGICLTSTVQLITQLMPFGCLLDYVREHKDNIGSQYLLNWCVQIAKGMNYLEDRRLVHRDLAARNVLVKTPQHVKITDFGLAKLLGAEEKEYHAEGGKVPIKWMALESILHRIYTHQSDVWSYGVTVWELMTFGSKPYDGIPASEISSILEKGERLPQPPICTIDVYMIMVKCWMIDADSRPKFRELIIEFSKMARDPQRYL
# method-description: EGFR kinase assay (Kinase-Glo)
# Format: biochemical
# particulars: 5 μM ATP, read-out: IC50 (concentration at which activity of 50% of EGFR is inhibited)
experimental-endpoint: IC50

# count of solved cases: 4
# compound, assayed-system, recorded-measurement
rows = [
    ("CN(C)C/C=C/C(=O)N1CCc2c(sc3ncnc(N[C@H](COCc4ccccc4F)c4ccccc4)c23)C1 [Compound 232]", "GST-EGFR-KD^WT (Homo sapiens, UniProt P00533)", "< 59 nM"),
    ("C[C@@H](Nc1ncnc2sc3c(c12)CCN(C(=O)/C=C/CN(C)C)C3)c1ccccc1 [Compound 178]", "GST-EGFR-KD^WT (Homo sapiens, UniProt P00533)", "< 59 nM"),
    ("C=CC(=O)N1CCc2c(sc3ncnc(N[C@H](COCc4cccc(OC)c4)c4ccccc4)c23)C1 [Compound 223]", "GST-EGFR-KD^WT (Homo sapiens, UniProt P00533)", "< 59 nM"),
    ("COc1cccc(COC[C@@H](Nc2ncnc3sc4c(c23)CCN(C(=O)/C=C/CN(C)C)C4)c2ccccc2)c1 [Compound 228]", "GST-EGFR-KD^WT (Homo sapiens, UniProt P00533)", "< 59 nM"),
]

Consider C[C@@H](Nc1ncnc2sc3c(c12)CCN(C(=O)/C=C/CN(C)C)C3)c1ccc(Br)cc1 [Compound 209] . Its measured IC50 is < 59 nM

Consider CN(C)C/C=C/C(=O)N1CCc2c(sc3ncnc(N[C@H](CO[Si](C)(C)C(C)(C)C)c4ccccc4)c23)C1 [Compound 186] . Its measured IC50 is 60 to 100 nM

Consider C/C=C/C(=O)N1CCc2c(sc3ncnc(N[C@H](COCc4cccc(F)c4)c4ccccc4)c23)C1 [Compound 220] . Its measured IC50 is 60 to 100 nM
